The values you see were collected from ChEMBL document CHEMBL5291721.

# AC50 measurements, system: D(1A) dopamine receptor (Homo sapiens); further: assay procedure not described here
# Sequence (P21728 whole entry): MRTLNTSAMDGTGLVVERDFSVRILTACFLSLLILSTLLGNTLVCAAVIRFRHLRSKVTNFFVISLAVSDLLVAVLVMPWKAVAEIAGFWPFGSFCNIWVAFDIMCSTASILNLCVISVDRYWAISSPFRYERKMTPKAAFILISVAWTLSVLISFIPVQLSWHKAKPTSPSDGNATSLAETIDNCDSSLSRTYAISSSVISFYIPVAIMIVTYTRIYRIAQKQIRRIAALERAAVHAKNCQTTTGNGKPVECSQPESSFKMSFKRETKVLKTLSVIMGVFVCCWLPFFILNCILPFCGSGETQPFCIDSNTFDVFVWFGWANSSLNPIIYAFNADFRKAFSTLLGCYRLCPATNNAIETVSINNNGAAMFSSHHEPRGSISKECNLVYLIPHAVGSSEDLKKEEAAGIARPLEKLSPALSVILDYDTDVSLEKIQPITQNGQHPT

Completed entries (count: 5):
Observed AC50 on D(1A) dopamine receptor (Homo sapiens) for O=C(Oc1ccc2c(c1)CCCN2C(=O)C(Cl)Cl)c1ccco1 [QUINFAMIDE] , please.
> 30 µM

Find AC50 (D(1A) dopamine receptor (Homo sapiens)) for the entry COCc1c(C(C)C)nc(C(C)C)c(/C=C/[C@@H](O)C[C@@H](O)CC(=O)O)c1-c1ccc(F)cc1
> 30 µM

# returns recorded AC50 (system: D(1A) dopamine receptor (Homo sapiens)) for Cc1ccccc1OCC(O)CO (stereo not given); further: assay procedure not described here
> 30 µM

Provide the documented AC50 with D(1A) dopamine receptor (Homo sapiens) as the system for COc1ccccc1N1CCN(CC(O)COc2cccc3ccccc23)CC1 (stereo not given)
2.08 µM

Kindly state the measured AC50 obtained for O=C(Cc1ccc(-c2ccccc2)cc1)Nc1ccccn1 [DIFENPIRAMIDE] with D(1A) dopamine receptor (Homo sapiens).
> 30 µM

Continuing:
Lab request: please report AC50 under test system D(1A) dopamine receptor (Homo sapiens) for CC(=O)c1ccc2c(c1)N(CCCN(C)C)c1ccccc1S2; further: assay procedure not described here
0.0259 µM

So what AC50 did N=C1CCCN1Cc1[nH]c(=O)[nH]c(=O)c1Cl get with D(1A) dopamine receptor (Homo sapiens)?
> 30 µM

Form entry - test system: D(1A) dopamine receptor (Homo sapiens); read-out: AC50; compound: CCN1CCCC1CNC(=O)c1cc(S(N)(=O)=O)ccc1OC (stereo not given) [SULPIRIDE]; further: assay procedure not described here
16.5 µM

Quick check: AC50 on D(1A) dopamine receptor (Homo sapiens), item CC[C@H]1CN2CC[C@H]1C[C@H]2[C@H](O)c1ccnc2ccc(OC)cc12 [HYDROQUININE] ?
> 30 µM

Form: Entry = CC(C)(C)NCC(O)COc1cccc2c1SCCC2 (stereo not given) | System = D(1A) dopamine receptor (Homo sapiens) | AC50 = ____; further: assay procedure not described here
> 30 µM

* * *

- target entity: Thromboxane A2 receptor (Homo sapiens); further: assay procedure not described here
- Sequence (P21731 whole entry): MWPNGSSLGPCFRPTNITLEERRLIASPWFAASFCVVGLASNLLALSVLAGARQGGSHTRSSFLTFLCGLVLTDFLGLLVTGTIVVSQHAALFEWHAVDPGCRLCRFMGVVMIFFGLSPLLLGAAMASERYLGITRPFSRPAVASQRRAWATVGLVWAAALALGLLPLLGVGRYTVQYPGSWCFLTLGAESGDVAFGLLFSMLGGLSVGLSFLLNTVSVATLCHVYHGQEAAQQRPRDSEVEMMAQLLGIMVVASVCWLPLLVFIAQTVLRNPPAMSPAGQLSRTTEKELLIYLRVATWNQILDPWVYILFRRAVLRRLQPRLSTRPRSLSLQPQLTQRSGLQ
- Format: functional, cell-based
# key: entry, value: AC50

Below, each entry is followed by its recorded AC50 result.
What value of measured AC50 is listed for Nc1ccc(S(=O)(=O)c2cnc(N)s2)cc1 [THIAZOLSULFONE] ?
> 30 µM

AC50 for C=CCc1ccccc1OCC(O)CNC(C)C (centres undefined) [ALPRENOLOL] ?
> 0.3 µM

Could you share which AC50 value was measured for CCCC1O[C@@H]2C[C@H]3[C@@H]4CCC5=CC(=O)C=C[C@]5(C)[C@H]4[C@@H](O)C[C@]3(C)[C@]2(C(=O)CO)O1 (some centres undefined) [BUDESONIDE] ?
> 30 µM

In the following, a different molecule is considered.
Give its AC50 value. Item: C[S+](CC[C@H](N)C(=O)[O-])C[C@H]1O[C@@H](n2cnc3c(N)ncnc32)[C@H](O)[C@@H]1O (some centres undefined) [ADEMETIONINE]
> 30 µM

* * *

- target entity: UniProt P28223
- Sequence (P28223 whole entry): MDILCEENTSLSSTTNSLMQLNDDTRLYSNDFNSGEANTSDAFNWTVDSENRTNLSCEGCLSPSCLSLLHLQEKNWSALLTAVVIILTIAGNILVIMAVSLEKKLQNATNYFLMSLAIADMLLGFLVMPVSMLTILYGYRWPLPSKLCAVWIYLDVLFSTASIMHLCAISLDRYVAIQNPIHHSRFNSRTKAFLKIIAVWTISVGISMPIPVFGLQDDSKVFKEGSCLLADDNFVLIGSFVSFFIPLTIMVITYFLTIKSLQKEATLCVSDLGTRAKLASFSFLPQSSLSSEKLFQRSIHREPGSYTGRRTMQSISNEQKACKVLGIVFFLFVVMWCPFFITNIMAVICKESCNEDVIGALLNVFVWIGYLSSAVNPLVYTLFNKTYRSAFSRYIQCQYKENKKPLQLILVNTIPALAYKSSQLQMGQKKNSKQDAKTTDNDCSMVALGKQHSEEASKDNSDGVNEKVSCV
- Assay type: functional, cell-based
result type: AC50

Answered cases to consult:
# lookup: AC50 of OC(CNCC(O)C1CCc2cc(F)ccc2O1)C1CCc2cc(F)ccc2O1 (configuration not stated) [NEBIVOLOL]
> 30 µM

Data request, read-out AC50, for NCC(=O)CCC(=O)O [AMINOLEVULINIC ACID]
> 30 µM

Which AC50 reading was recorded for the compound CC(CC(c1ccccc1)c1ccccc1)NC(C)(C)C (configuration not stated) [TERODILINE] ?
> 30 µM

Next:
Using the record for Fc1ccc(C(c2ccccc2)(c2ccccc2F)n2ccnc2)cc1 (configuration not stated) [FLUTRIMAZOLE] , report its AC50.
> 30 µM

Which AC50 value is on record for Cc1ccc(-n2nccn2)c(C(=O)N2CCN(c3nc4cc(Cl)ccc4o3)CC[C@H]2C)c1 [SUVOREXANT] ?
> 30 µM

Reported AC50, compound O=C(O)C[C@H](O)C[C@H](O)/C=C/c1c(C2CC2)nc2ccccc2c1-c1ccc(F)cc1 [PITAVASTATIN] : ____
> 30 µM

Which AC50 value belongs to CNC1Cc2ccccc2N(C)c2ccccc21 (configuration not stated) [METAPRAMINE] ?
> 30 µM

Which AC50 is reported for this compound? C[C@]1(O)CC[C@H]2[C@@H]3CCC4=CC(=O)CC[C@]4(C)[C@@]3(F)[C@@H](O)C[C@@]21C [FLUOXYMESTERONE]
> 10 µM

Which AC50 reading was recorded for the compound COC(=O)C1=C(C)NC(C)=C(C(=O)OC2CCCN(Cc3ccccc3)C2)C1c1cccc([N+](=O)[O-])c1 (configuration not stated) [BENIDIPINE] ?
> 30 µM

Returns the measured AC50 for the input compound. Input: COC1=C(OC)C(=O)C(C/C=C(\C)CC/C=C(\C)CC/C=C(\C)CC/C=C(\C)CC/C=C(\C)CC/C=C(\C)CC/C=C(\C)CC/C=C(\C)CC/C=C(\C)CCC=C(C)C)=C(C)C1=O [UBIDECARENONE]
> 30 µM

Which AC50 is reported for this compound? CN(C)CCC=C1c2ccccc2C(C)(C)c2ccccc21
4.5 µM

Consider the compound CN1C(=O)CCS(=O)(=O)C1c1ccc(Cl)cc1 (configuration not stated) [CHLORMEZANONE] and give its measured AC50.
> 10 µM

Which AC50 is listed for COc1ccc2c3c1O[C@H]1[C@@H](O)CC[C@H]4[C@@H](C2)N(C)CC[C@@]341 [DIHYDROCODEINE] ?
> 30 µM

Given the entry Nc1nc(NC2CC2)c2ncn([C@H]3C=C[C@@H](CO)C3)c2n1 [ABACAVIR] , report its measured AC50.
> 30 µM

Fill in: AC50 of CC(=O)O[C@H]1CC[C@@]2(C)C(=CC[C@@H]3[C@@H]2CC[C@]2(C)C(c4cccnc4)=CC[C@@H]32)C1 [ABIRATERONE ACETATE] is ___
> 30 µM

Item under review: C[C@H]1COc2c(C3(N)CC3)c(F)cc3c(=O)c(C(=O)O)cn1c23 [PAZUFLOXACIN] . Reported AC50?
> 10 µM

Returns the measured AC50 for the input compound. Input: C[C@H](CSC(=O)c1ccccc1)C(=O)N1C[C@@H](Sc2ccccc2)C[C@H]1C(=O)O [ZOFENOPRIL]
> 10 µM
